Each record here notes measured ARE-luciferase IC50.
STUDY TARGET: T1, human Activin A (R&D Systems) (human, UniProt P08476 311-426)
T1 sequence (looked up): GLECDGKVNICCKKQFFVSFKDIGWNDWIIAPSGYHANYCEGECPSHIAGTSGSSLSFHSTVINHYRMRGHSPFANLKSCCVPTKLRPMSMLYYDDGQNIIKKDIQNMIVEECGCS
PROTOCOL DESCRIPTION: cell-based or functional assay

# BINDER, ASSAY VALUE
measured = [
    ("ATI-1338 [40K 2-branch PEG] (designed binder, 40K 2-branch PEG on the Cys of the EGSGC tail, cysteine mutant of 2987_H07) MGVSDVPRDLEVVAATPTSLLISWTLPHAGRAHYYRITYGETGGNSPVQEFTVPGRGVTATISGLKPGVDYTITVYAVTVTTTKVIHYKPISINYRTEGSGCHHHHHH", "> 1 µM"),
    ("ATI-1378 [40K 2-branch PEG] (designed binder, 40K 2-branch PEG on the Cys of the EGSGC tail, cysteine mutant of 3146_A08) MGVSDVPRDLEVVAATPTSLLISWSLPNPGNAHYYRITYGETGGNSPVQEFTVPGRGVTATISGLKPGVDYTITVYAVTVTDTGFITYKPISINYRTEGSGCHHHHHH", "> 1 µM"),
    ("ATI-1375 [40K 2-branch PEG] (designed binder, 40K 2-branch PEG on the Cys of the EGSGC tail, cysteine mutant of 3115_D04) MGVSDVPRDLEVVAATPTSLLISWDAPRGLARYYRITYGETGGNSPVQEFTVFGRGTTATISGLKPGVDYTITVYAVTIDRDGTRSFDPISINYRTEGSGCHHHHHH", "> 1 µM"),
    ("ATI-1376 [40K 2-branch PEG] (designed binder, 40K 2-branch PEG on the Cys of the EGSGC tail, cysteine mutant of 3115_E06) MGVSDVPRDLEVVAATPTSLLISWDAPAGLARYYRITYGETGGNSPVQEFTVVGRGNTATISGLKPGVDYTITVYAVTIFRDGPVTWDPISINYRTEGSGCHHHHHH", "> 1 µM"),
    ("ATI-1266 [40K 2-branch PEG] (designed binder, 40K 2-branch PEG on the Cys of the EGSGC tail, cysteine mutant of 2525_D02) MGVSDVPRDLEVVAATPTSLLISWTLPHAGRAHYYRITYGETGGNSPVQEFTVPGRGVTATISGLKPGVDYTITVYAVTVTTTSVILYKPISINYRTEGSGCHHHHHH", "2 µM"),
    ("ATI-1107 [40K 2-branch PEG] (designed binder, 40K 2-branch PEG on the Cys of the GSGC tail, cysteine mutant of 1979_B06) MGVSDVPRDLEVVAATPTSLLISWSLPHAGHVNYYRITYGETGGNSPVQEFTVPGRGVTATISGLKPGVDYTITVYAVTLTKSQMIHYMPISINYRTGSGCHHHHHH", "> 2 µM"),
]

In the following, a different binder is considered.
Any idea what its ARE-luciferase IC50 is? The binder is ATI-1339 [40K 4-branch PEG] (designed binder, 40K 4-branch PEG on the Cys of the EGSGC tail, cysteine mutant of 2987_H07) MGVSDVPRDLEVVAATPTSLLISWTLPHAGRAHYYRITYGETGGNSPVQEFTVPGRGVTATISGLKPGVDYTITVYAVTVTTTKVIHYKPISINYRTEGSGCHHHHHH
> 1 µM
